Tested on: 282377-053-R-J1-PDC complex spheroid viability;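 also: spheroids exposed to compounds for seven days; 100% = DMSO vehicle control viability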
Test: Anticancer human tumor 282377-053-R-J1-PDC patient-derived colon adenocarcinoma cell line growth inhibition [POLQ]
Conditions: second compound 3.16 µM; first compound 10 µM; stronger effect = lower value
Protocol: Multicellular complex tumor spheroid response to Polymerase (POL) inhibitors (novobiocin, ART-558, RP6685) in combination with a variety of drugs and investigational agents in selected tumor cell lines The POL inhibitors (novobiocin, ART-558, and RP6685) were evaluated both individually and in combination with standard of care and investigational anticancer small molecules within a complex spheroid model of solid tumors. . […]
endpointLabel: viability, T/C

compound="C=CC(=O)N1CCN(c2nc(=O)n(-c3c(C)ccnc3C(C)C)c3nc(-c4c(O)cccc4F)c(F)cc23)C(C)C1 (stereo not given) + Cc1cccc(N(C)C(=O)C2C(O)CCN2c2nc(C)cc(C(F)(F)F)c2C#N)c1" systemname="282377-053-R-J1-PDC complex spheroid viability" endpointlabel="viability, T/C" result=89.4%
compound="CC1COCCN1c1cc(C2(S(C)(=N)=O)CC2)nc(-c2ccnc3[nH]ccc23)n1 (stereo not given) + Nc1ccc(C#CCN(C(=O)Cc2ncc(C(F)(F)F)cc2C(F)(F)F)c2ccc(F)cc2)nn1" systemname="282377-053-R-J1-PDC complex spheroid viability" endpointlabel="viability, T/C" result=57.5%
compound="O=C(Nc1ccc(O)c(NS(=O)(=O)c2ccc(F)cc2)c1)c1ccc(-c2ccccc2)cc1 + Nc1ccc(C#CCN(C(=O)Cc2ncc(C(F)(F)F)cc2C(F)(F)F)c2ccc(F)cc2)nn1" systemname="282377-053-R-J1-PDC complex spheroid viability" endpointlabel="viability, T/C" result=117%
compound="CNCc1ccc(-c2[nH]c3cc(F)cc4c3c2CCNC4=O)cc1 + Cc1cccc(N(C)C(=O)C2C(O)CCN2c2nc(C)cc(C(F)(F)F)c2C#N)c1" systemname="282377-053-R-J1-PDC complex spheroid viability" endpointlabel="viability, T/C" result=150%
compound="O=C(c1cc(Cc2n[nH]c(=O)c3ccccc23)ccc1F)N1CCN(C(=O)C2CC2)CC1 + COC1C(OC(N)=O)C(O)C(Oc2ccc3c(O)c(NC(=O)c4ccc(O)c(CC=C(C)C)c4)c(=O)oc3c2C)OC1(C)C" systemname="282377-053-R-J1-PDC complex spheroid viability" endpointlabel="viability, T/C" result=98.8%

Source listed as PubChem BioAssay AID1963852.
